# Classification per entry
TARGET_OF_ASSAY: T1, GST-novel PDZ gene PDZ domain 1 (Homo sapiens (Human)), Q9H5P4
T1 chain: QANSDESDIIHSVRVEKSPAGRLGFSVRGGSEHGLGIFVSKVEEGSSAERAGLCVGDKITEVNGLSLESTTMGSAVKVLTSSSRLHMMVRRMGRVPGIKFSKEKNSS
METHOD_NOTES: G' assay; further: key of the grades not given here
Respond numerically; units are A450 class and should not be typed.

[[record]]
binder = "VPGALDYAAFSSALYGESDL (modifications not checked) [a-actinin 2]"
reported_endpoint = "Classification"
test_value = 2

[[record]]
binder = "PIPAGGCTFSGIFPTLTSPL (modifications not checked) [KIA 1481]"
reported_endpoint = "Classification"
test_value = 1

[[record]]
binder = "VHDAESSDEDGYDWGPATDL (modifications not checked) [zona occludens 3 (ZO-3) PL peptide]"
reported_endpoint = "Classification"
test_value = 1


Notebook: ILNSIQVMRAQMNQIQSVEV (modifications not checked) [ephrin B2] , Classification read as 2

Origin of measurements: patent US20050282743A1
